- Measurement Notes: Lipid nanoparticle size and polydispersity by dynamic light scattering (Malvern Zetasizer Nano ZS)
- Type: physicochemical
- Run Conditions: LNP of cationic lipid/DSPC/cholesterol/PEG-lipid 50:10:38.5:1.5 with mRNA
- Method: Briefly, a cationic lipid provided herein, DSPC, cholesterol, and PEG-lipid were solubilized in ethanol at a molar ratio of 50:10:38.5:1.5, and mRNA were diluted in 10 to 50 mM citrate buffer, pH=4. […] Lipid nanoparticle size were determined by dynamic light scattering using a Malvern Zetasizer Nano ZS (Malvern UK) using a 173° backscatter detection mode. […]
Response field label takes 1 when size (nm) is strictly below 60 nm and 0 in all other cases.

# Compound, Assigned Class
records = [
    ("CCCCCCCCCCCCOCC(CN(CCO)CCCCCC(=O)OCC(CCCCCC)CCCCCCCC)OC(=O)CCCCC (centres unmarked)", 1),
    ("CCCCCCCCC(CCCCCC)CC(=O)OCC(CCCCN(CCO)C1CCCCC1)COC(=O)CC(CCCCCC)CCCCCCCC (centres unmarked)", 1),
    ("CCCCCCCCCCCCOCC(CN(CCO)CCCCCC(=O)OCC(CCCCCC)CCCCCCCC)OC(C)=O (centres unmarked)", 0),
    ("CCCCCCCCC(CCCCCCCC)CNC(=O)CCOCC(CN(C)CCN(CCO)C1CCCCCC1)OCCC(=O)NCC(CCCCCCCC)CCCCCCCC (centres unmarked)", 1),
    ("CCCCCCCCCCCCOCC(CN(C)CCN(CCO)C1CCC1)OC(=O)CCCCCCCCCCC (centres unmarked)", 0),
    ("CCCCCCCCCCCCOCC(CN(C)CCN(CCO)C1CCC1)OCCCCCC (centres unmarked)", 0),
    ("CCCCCCCCC(CCCCCC)CC(=O)OCC(CCCCN(CCN(CCO)CCCCCC)C1CCC1)COC(=O)CC(CCCCCC)CCCCCCCC (centres unmarked)", 0),
    ("CCCCCCCCCCCCOCC(CN(CCO)C1CCC1)OCCCCCCCCCCCC (centres unmarked)", 0),
]
